Values were extracted from PubChem BioAssay.

Molecular target: Left-right determination factor 2 (Homo sapiens)
Assay: LEFTY2 binders on small-molecule microarrays, primary screen, biochemical, small-molecule microarray, 635 nm fluorescence scan (AID 1110)
Details: LEFTY2 binding, higher = more signal
measurement name: composite z-score

>  <compound>
COC(=O)c1ccc(OC)c(/C=C\CC(OC(C)=O)c2ccccc2)c1 (centres undefined)

>  <recorded value>
0.374

$$$$
>  <compound>
CCN(CC)c1ccc(N2CC=CC34O[C@@H]5C=CCCOC(=O)C5[C@H]3C(=O)N(CCCCCO)[C@@H]4C2=O)cc1 (some centres undefined)

>  <recorded value>
-0.48

$$$$
>  <compound>
CC(C)(C)OC(=O)CC[C@@]1(C(=O)O)N=C(c2ccc(OCCCO)cc2)O[C@@H]1c1ccccc1N=[N+]=[N-]

>  <recorded value>
-0.486

$$$$
>  <compound>
CC(C)NC(=O)[C@@H]1c2ccccc2C(=O)N(Cc2ccccc2)[C@H]1c1ccc(CO)cc1

>  <recorded value>
-1.06

$$$$

----------
Experiment: small-molecule binders of probe aLefty1, primary screen, biochemical, small-molecule microarray, 635/667 nm fluorescence (AID 1153);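 further: score merges spot fluorescence with signal-to-noise ratio from the scanned slide images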
Conditions: higher = more signal

>  <compound>
C=CCN1C(=O)[C@]2(O[C@H](CCO)[C@@H]([Si](C)(C)c3ccc(OC)cc3)[C@@H]2C)c2cc(NC(=O)[C@H](C)O)ccc21

>  <composite z-score>
0.174

$$$$
>  <compound>
CN1C=C(C(=O)OCCS(C)(=O)=O)C(C(=O)OCCS(C)(=O)=O)=CC(CCCO)=CC1C1CC1 (stereo not drawn)

>  <composite z-score>
0.026

$$$$
>  <compound>
O=C/C=C/c1ccc2c(c1)OCO2

>  <composite z-score>
-0.205

$$$$
>  <compound>
[N-]=[N+]=NCc1ccccc1C[C@]1(C(=O)NCC(O)CO)N=C(c2ccc(OCCCO)cc2)O[C@H]1c1ccccc1N=[N+]=[N-] (stereo partly drawn)

>  <composite z-score>
0.12

$$$$
>  <compound>
Cc1cc(C)cc(N2C(=O)CS(=O)(=O)C2c2cccc([N+](=O)[O-])c2)c1 (stereo not drawn)

>  <composite z-score>
1.33

$$$$
>  <compound>
[N-]=[N+]=NCc1ccccc1C[C@]1(C(=O)NCCN2CCOCC2)N=C(c2ccc(OCCCO)cc2)O[C@H]1c1ccccc1N=[N+]=[N-]

>  <composite z-score>
0.586

$$$$
>  <compound>
O=C(CS)NCCCCCCNC(=O)[C@H]1C[C@H]2C(=O)NCC(=O)N2[C@H]1c1ccc(O)cc1

>  <composite z-score>
-0.0969

$$$$
>  <compound>
O=C1C[C@]2(c3ccc([N+](=O)[O-])cc3)C(=O)N(CC(F)(F)F)c3cc(CO)ccc3[C@H]2N1CC12CC3CC(CC(C3)C1)C2

>  <composite z-score>
-0.629

$$$$

----------
Biological target: Alpha-bungarotoxin (Bungarus multicinctus)
Experiment: alpha-bungarotoxin binders on microarray, profiling panel, artefact control for SMM control protein annotation, biochemical, small-molecule microarray, Alexa647 label, 635/667 nm fluorescence (AID 1117)
Details: alpha-BTX-A647 binding fluorescence, higher = more signal
Here the recorded composite z-score is given for each entry.

>  <compound>
COC(=O)C(CC#Cc1ccc2c(c1)[C@]1(C(=O)N2)[C@H](c2ccc(OCCO)cc2)N2[C@H](c3ccccc3)[C@H](c3ccccc3)OC(=O)[C@H]2[C@@H]1C(=O)NC[C@H](O)c1ccccc1)C(=O)OC

>  <composite z-score>
2.1

$$$$
>  <compound>
CC(c1ccccc1)C(O)C1C=CC2C(=O)NC(=O)C2N1Nc1ccccn1 (stereo not drawn)

>  <composite z-score>
0.672

$$$$
>  <compound>
CO[C@H]1O[C@H](CO)[C@@H](OC(=O)Nc2ccc(Oc3ccccc3)cc2)[C@H](OC(=O)Nc2ccccc2)[C@H]1OC(=O)Nc1ccccc1

>  <composite z-score>
1.8

$$$$
>  <compound>
COC(=O)[C@@]1(Cc2ccc(F)cc2)[C@H]2c3cc(C(=O)N4CCCC4)n(Cc4cccc5ccccc45)c3C[C@H]2CN1C(=O)c1ccccc1

>  <composite z-score>
1.07

$$$$
>  <compound>
O=C1c2ccccc2[C@@]2(Cc3ccccc3N(Cc3ccccc3)C2=O)[C@H](c2ccc(CO)cc2)N1C1CCCCC1

>  <composite z-score>
0.0868

$$$$
>  <compound>
Cc1c(NC(=O)CC#N)c(=O)n(-c2ccccc2)n1C

>  <composite z-score>
1.08

$$$$
>  <compound>
C=CCNC(=O)[C@H]1[C@@H]2C(=O)O[C@@H](c3ccccc3)[C@@H](c3ccccc3)N2[C@@H](c2ccc(O)cc2)[C@]12C(=O)N(C(=O)OCCOC)c1ccc(C#CCCO)cc12

>  <composite z-score>
1.25

$$$$
>  <compound>
C=C(COC)C(=O)CC[C@@H](OC(=O)c1cccnc1)c1ccc(CO)o1

>  <composite z-score>
0.285

$$$$
>  <compound>
COc1ccc(C#Cc2ccc3c(c2)[C@]2(C(=O)N3)[C@H](C(=O)NC[C@H](O)c3ccccc3)[C@H]3C(=O)O[C@H](c4ccccc4)[C@H](c4ccccc4)N3[C@@H]2c2ccc(OCCO)cc2)cc1

>  <composite z-score>
1.76

$$$$
>  <compound>
CCOC(=O)C[C@H]1[C@H](OC(=O)c2ccc(-c3ccccc3)cc2)[C@@H](NC(=O)Cc2ccc(OC)cc2)c2cc(OCCCO)ccc2N1C(=O)c1ccc2ccccc2n1

>  <composite z-score>
0.0263

$$$$
>  <compound>
CC(C)NC(=O)[C@@]1(Cc2ccccc2I)c2ccccc2C(=O)N(Cc2ccccc2)[C@H]1c1ccc(CO)cc1

>  <composite z-score>
1.4

$$$$
>  <compound>
COCCOC(=O)N1C(=O)[C@@]2(c3cc(C#CCCO)ccc31)[C@H](c1ccccc1OCCO)N1[C@H](c3ccccc3)[C@H](c3ccccc3)OC(=O)[C@H]1[C@@H]2C(=O)N1CCN(c2ncccn2)CC1

>  <composite z-score>
0.994

$$$$
>  <compound>
COc1c(C)cc(-c2cc3c(c(-c4ccc(Oc5ccccc5)cc4)n2)[Si](C(C)C)(C(C)C)OC3)cc1C

>  <composite z-score>
0.327

$$$$
>  <compound>
[N-]=[N+]=NCc1ccccc1[C@@H]1OC(c2ccc(OCCCO)cc2)=N[C@]1(Cc1ccccc1N=[N+]=[N-])C(=O)NCc1ccccc1

>  <composite z-score>
0.158

$$$$
>  <compound>
CC(=CC1CCCCC1)[C@@H](NC(=O)c1ccc(C(F)(F)F)cc1)c1ccc(-c2ccccc2)cc1

>  <composite z-score>
0.48

$$$$
>  <compound>
[N-]=[N+]=NCc1ccccc1C[C@]1(C(=O)NCCN2CCOCC2)N=C(c2ccc(OCCCO)cc2)O[C@H]1c1ccccc1N=[N+]=[N-]

>  <composite z-score>
0.919

$$$$
>  <compound>
COc1ccc(C#Cc2ccc3c(c2)[C@]2(C(=O)N3)[C@H](C(=O)NC[C@H](O)c3ccccc3)[C@H]3C(=O)O[C@H](c4ccccc4)[C@H](c4ccccc4)N3[C@@H]2c2ccccc2OCCO)cc1

>  <composite z-score>
1.22

$$$$
>  <compound>
CC(=O)C1=CCC(c2ccccc2)N(S(=O)(=O)c2ccc(C)cc2)C1 (stereo not drawn)

>  <composite z-score>
0.19

$$$$
>  <compound>
CCOC(=O)C[C@H]1[C@H](OC(=O)Cc2ccc3c(c2)OCO3)[C@@H](NC(=O)C2CCCCC2)c2cc(OCCCO)ccc2N1C(=O)Cc1ccc(OC)cc1

>  <composite z-score>
0.199

$$$$
>  <compound>
CN1CCC(CCCO)=CC1c1ccc(CN2CCCC2)cc1 (stereo not drawn)

>  <composite z-score>
1.34

$$$$
>  <compound>
C=CCC(OC(C)=O)[C@@H]1[C@@H](N(Cc2cc3ccccc3o2)C(=O)c2ccc(C)cc2)c2cc(OCCCO)ccc2N1C(=O)c1ccc2ccccc2c1 (stereo partly drawn)

>  <composite z-score>
-0.298

$$$$
>  <compound>
CC1=C2[C@@H](CCc3ccccc3)OB(O)C[C@@H]2n2c(=O)n(-c3ccccc3)c(=O)n2C1

>  <composite z-score>
-0.027

$$$$
>  <compound>
COC(=O)C(CC#Cc1ccc2c(c1)[C@]1(C(=O)N2)[C@H](C(=O)NC[C@H](O)c2ccccc2)[C@H]2C(=O)O[C@H](c3ccccc3)[C@H](c3ccccc3)N2[C@@H]1c1ccc(OCCO)cc1)C(=O)OC

>  <composite z-score>
2.23

$$$$
>  <compound>
CCCC[C@@H]1C[C@H]1[C@@H](NC(=O)c1ccc(-c2ccccc2)cc1)c1ccc(-c2ccccc2)cc1

>  <composite z-score>
0.364

$$$$
>  <compound>
CN(C)C(=O)[C@@]1(CCC(=O)OC(C)(C)C)N=C(c2ccc(OCCCO)cc2)O[C@H]1c1ccccc1

>  <composite z-score>
0.575

$$$$
>  <compound>
C=CC(=C)C1=CCO[C@@H]1[C@H]1CCCN1S(=O)(=O)c1ccccc1[N+](=O)[O-]

>  <composite z-score>
0.537

$$$$
>  <compound>
COc1ccc([Si](C)(C)[C@@H]2[C@@H](CC(=O)N(CCO)Cc3ccccc3)O[C@]3(C(=O)N(C)c4ccccc43)[C@H]2C)cc1

>  <composite z-score>
0.805

$$$$
>  <compound>
C=C[C@H](C)[C@@H](O)c1ccc(O)c2ccccc12

>  <composite z-score>
0.465

$$$$
